Mark Condition met only for melting point values smaller than 200 °C; exact matches and larger values are Condition not met.

compound=COc1cc(Nc2nc3n(n2)CCC[C@H]3c2ccccc2Cl)ccc1-n1cnc(C)c1 answer_label="Condition met"
compound="Cc1cc(-c2ccc(Nc3nc4n(n3)CCCC4c3c(F)cccc3Cl)cc2)ccn1 (stereo not drawn)" answer_label="Condition not met"
compound="Cc1cc(-c2ccc(Nc3nc4n(n3)CCCC4c3ccc(F)cc3C)cc2)ccn1 (stereo not drawn)" answer_label="Condition met"
compound="FC(F)(F)c1ccccc1C1CCCn2nc(Nc3ccc(-c4ccncc4)cc3)nc21 (stereo not drawn)" answer_label="Condition not met"
compound="COc1cc(Nc2nc3n(n2)CCCC3c2ccccc2C(F)(F)F)ccc1-n1cnc(C)c1 (stereo not drawn)" answer_label="Condition met"
compound="COc1cc(Nc2nc3n(n2)CCCC3c2ccc(F)cc2C)ccc1-c1ccnc(C)c1 (stereo not drawn)" answer_label="Condition met"
compound="COc1cc(Nc2nc3n(n2)CCOC3c2ccccc2Cl)ccc1-c1ccnc(C)c1 (stereo not drawn)" answer_label="Condition met"
compound=COc1cc(Nc2nc3c(-c4ccccc4Cl)cccn3n2)ccc1-n1cnc(C)c1 answer_label="Condition not met"
compound="Cc1cc(-c2ccc(Nc3nc4n(n3)CCOC4c3ccccc3Cl)cc2)ccn1 (stereo not drawn)" answer_label="Condition not met"
compound="COc1cc(C2CCCn3nc(Nc4ccc(-c5ccnc(C)c5)cc4)nc32)ccc1F (stereo not drawn)" answer_label="Condition met"
compound="COc1cc(Nc2nc3n(n2)CCCC3c2ccccc2C(F)(F)F)ccc1-c1ocnc1C (stereo not drawn)" answer_label="Condition not met"
compound="Cc1cc(-c2ccc(Nc3nc4n(n3)CCCC4c3ccc(F)cc3F)cc2)ccn1 (stereo not drawn)" answer_label="Condition met"
compound=COc1cc(Nc2nc3c(-c4ccccc4Cl)cccn3n2)ccc1-c1ccnc(C)c1 answer_label="Condition met"
compound="COc1cc(Nc2nc3n(n2)CCCC3c2cccc(F)c2)ccc1-c1ccnc(C)c1 (stereo not drawn)" answer_label="Condition met"
compound="COc1cc(Nc2nc3n(n2)CCCC3c2ccccc2F)ccc1-n1cnc(C)c1 (stereo not drawn)" answer_label="Condition met"
compound=COc1cc(Nc2nc3c(-c4cccc(C(F)(F)F)c4)cccn3n2)ccc1-n1cnc(C)c1 answer_label="Condition met"
compound="COc1cc(C2CCCn3nc(Nc4ccc(-c5ccnc(C)c5)c(OC)c4)nc32)ccc1F (stereo not drawn)" answer_label="Condition met"
compound="COc1cc(Nc2nc3n(n2)CCOC3c2ccc(F)cc2F)ccc1-c1ccnc(C)c1 (stereo not drawn)" answer_label="Condition not met"
compound=COc1cc(Nc2nc3c(-c4ccccc4C(F)(F)F)cccn3n2)ccc1-c1ocnc1C answer_label="Condition not met"
compound=COc1nc(Nc2nc3c(-c4ccc(F)cc4C)nccn3n2)ccc1-n1cnc(C)c1 answer_label="Condition not met"
compound="COc1cccc(C2CCCn3nc(Nc4ccc(-c5ccnc(C)c5)c(F)c4)nc32)c1 (stereo not drawn)" answer_label="Condition met"
compound="COc1cccc(C2CCCn3nc(Nc4ccc(-c5ccnc(C)c5)cc4)nc32)c1 (stereo not drawn)" answer_label="Condition not met"
compound="Cc1cc(-c2ccc(Nc3nc4n(n3)CCCC4c3ccccc3Cl)cc2)ccn1 (stereo not drawn)" answer_label="Condition not met"
compound=Cc1cc(-c2ccc(Nc3nc4c(-c5ccccc5Cl)cccn4n3)cc2F)ccn1 answer_label="Condition not met"
compound="COc1cc(Nc2nc3n(n2)CCCC3c2ccc(C(F)(F)F)cc2)ccc1-n1cnc(C)c1 (stereo not drawn)" answer_label="Condition not met"
compound="COc1cc(Nc2nc3n(n2)CCCC3c2cc(C(F)(F)F)ccc2C)ccc1-c1ccnc(C)c1 (stereo not drawn)" answer_label="Condition met"
compound="COc1cc(Nc2nc3n(n2)CCCC3c2ccccc2F)ccc1-c1ccnc(C)c1 (stereo not drawn)" answer_label="Condition not met"
compound="COc1ccc(F)c(C2CCCn3nc(Nc4ccc(-c5ccnc(C)c5)c(F)c4)nc32)c1 (stereo not drawn)" answer_label="Condition not met"
compound="COc1cc(F)cc(C2CCCn3nc(Nc4ccc(-c5ccnc(C)c5)cc4)nc32)c1 (stereo not drawn)" answer_label="Condition met"

src = patent US9145399B2
